Documented viability, T/C across a set of compounds
Test system: PC-3 multi-cell spheroids, viability
protocol: Anticancer human tumor PC-3 cell line growth inhibition [IpAb];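 further: spheroids exposed to compounds for 7 days before readout; 100% = DMSO vehicle control wells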
condition.notes: second compound 1 µM; first compound 0.03 µM; active compounds read low
Write the value in % as a bare number.

Summary: CC(=O)c1c(C)c2cnc(Nc3ccc(N4CCNCC4)cn3)nc2n(C2CCCC2)c1=O + CCN1CCN(Cc2ccc(Nc3ncc(F)c(-c4cc(F)c5nc(C)n(C(C)C)c5c4)n3)nc2)CC1 , PC-3 multi-cell spheroids, viability, viability, T/C = 57.5

Summary: Cn1cnc2c(F)c(Nc3ccc(Br)cc3Cl)c(C(=O)NOCCO)cc21 + CC(C)NCC(C(=O)N1CCN(c2ncnc3c2C(C)CC3O)CC1)c1ccc(Cl)cc1 , PC-3 multi-cell spheroids, viability, viability, T/C = 27.1

Summary: CC(C)(C)c1cnc(CSc2cnc(NC(=O)C3CCNCC3)s2)o1 + CC(C)NCC(C(=O)N1CCN(c2ncnc3c2C(C)CC3O)CC1)c1ccc(Cl)cc1 , PC-3 multi-cell spheroids, viability, viability, T/C = 34.9

Summary: CC(=O)c1c(C)c2cnc(Nc3ccc(N4CCNCC4)cn3)nc2n(C2CCCC2)c1=O + CC(C)NCC(C(=O)N1CCN(c2ncnc3c2C(C)CC3O)CC1)c1ccc(Cl)cc1 , PC-3 multi-cell spheroids, viability, viability, T/C = 17.2

Summary: Cn1cnc2c(F)c(Nc3ccc(Br)cc3Cl)c(C(=O)NOCCO)cc21 + CCN1CCN(Cc2ccc(Nc3ncc(F)c(-c4cc(F)c5nc(C)n(C(C)C)c5c4)n3)nc2)CC1 , PC-3 multi-cell spheroids, viability, viability, T/C = 47.3

---
Summary: CC(C)(C)c1cnc(CSc2cnc(NC(=O)C3CCNCC3)s2)o1 + CCN1CCN(Cc2ccc(Nc3ncc(F)c(-c4cc(F)c5nc(C)n(C(C)C)c5c4)n3)nc2)CC1 , PC-3 multi-cell spheroids, viability, viability, T/C = 36.5
